Value source: ChEMBL document CHEMBL1201862

- System: LOX IMVI
- EXPERIMENT: NCI tumour cell line growth inhibition, 48 h
Activity calls are given as the source filed them. No stated cut-off is given here; in the data, active = GI50 up to about 1.1 µM and inactive = higher. Non-standard residues stand in square brackets, D forms with d. Residues, ends and D or L forms follow the SMILES beside them. *: point of attachment. NMeF = CN[CH](Cc1ccccc1)C(=O)O; NMeV = CN[CH](C(=O)O)C(C)C; Boc = CC(C)(C)OC(=O)*
Classes used: 1 = active, 0 = inactive

{"columns": ["COMPOUND", "CATEGORY_LABEL"],
 "data": [
  ["CCOC(=O)c1cn2c(n1)sc1c(Cl)c(Cl)ccc12", 0],
  ["COC(=O)/C(Cl)=C1/CC1COCc1ccccc1 (centres undefined)", 0],
  ["CC(=O)C1(O)CC2(c3ccccc3)C(=O)C1(c1ccccc1)C(c1ccccc1)=C2c1ccccc1 (centres undefined)", 0],
  ["Cn1c(=O)nc2n(-c3ccc(Cl)c(C(F)(F)F)c3)c3ccccc3nc-2c1=O", 0],
  ["CC(C)(C)c1cc2ccc(C(N)=O)cc2c(=O)[nH]1", 0],
  ["Clc1ccc(COc2ccccc2/C=N/c2c(-c3ccco3)nc3ccccn23)c(Cl)c1", 0],
  ["CC1(C)OC(=O)C(C)(C)OC1=O", 0],
  ["O=C(C=P(c1ccccc1)(c1ccccc1)c1ccccc1)c1ccc(-c2ccc(F)cc2F)cc1", 0],
  ["Nc1ccccc1N/C=C\\C(=O)C(Cl)(Cl)Cl", 0],
  ["C=C(Br)CNC(=O)Nc1ccc(Cl)c(Cl)c1", 0],
  ["CCN(CC)CCCNc1nnc(C)c2[nH]c3ccccc3c12", 0],
  ["COc1ccc(-c2c(-c3ccc(OC)cc3)n3c(=O)n(C)c(=O)n23)cc1", 0],
  ["CC1=NC2(C(=O)O)C3(C(=O)O)N=C(C)OC3(C(F)(F)F)C2(C(F)(F)F)O1 (centres undefined)", 0],
  ["CC(N)/C(N)=N/O (centres undefined)", 0],
  ["N#C/C(=C/Sc1ccccc1)C(=O)O", 0],
  ["Cc1c(C)c(C)n(C2OC(CO)C(O)C(O)C2O)c(=S)c1C#N (centres undefined)", 0],
  ["C/C(=N\\NC(=S)N(C)C)c1nc2cccnc2[nH]1", 1],
  ["CN(C)CCNC(=O)c1cccc2c1Nc1ccccc1S2", 0],
  ["COc1ccc(Nc2nnc(CCCCCCCCc3nnc(Nc4ccc(OC)cc4)o3)o2)cc1", 0],
  ["[O-]c1c2cc(-[n+]3c(-c4ccccc4)cc(-c4ccccc4)cc3-c3ccccc3)cc1CO[C@@H](c1ccccc1)[C@H](c1ccccc1)OCCOCCO[C@@H](c1ccccc1)[C@H](c1ccccc1)OC2", 1],
  ["O=C(N/N=C/c1cc(-c2ccccc2Cl)c(-c2ccccc2Cl)o1)c1ccncc1", 0],
  ["COc1ccc(OC)c(NC(=O)c2c(Cl)c(Cl)c(Cl)c(Cl)c2-c2nc3ccccc3[nH]2)c1", 0],
  ["Cc1c(-c2cc3n(n2)C(c2cccs2)C(C#N)=C(c2ccccc2)N3)c(=O)n(-c2ccccc2)n1C (centres undefined)", 0],
  ["COc1cc(/C=C/c2sc3ccccc3[n+]2C)ccc1N(C)C", 0],
  ["CC(C)(CO)CNc1nc(N)nc(Cl)c1N", 0],
  ["Oc1ncnc2c1CCCN2", 0],
  ["COc1ccc(-c2cc(=O)c3cc(O)ccc3o2)c(OC)c1OC", 0],
  ["CC(C)C(NC(=O)OC(C)(C)C)C(=O)N(C)C(Cc1ccccc1)C(=O)N(C)C(C(=O)O)C(C)C (stereo not drawn) (Boc-Val-[NMeF]-[NMeV]-OH; configuration not given here)", 0],
  ["CC(C)(C)C1(O)C=C(O)C(=O)N1NC(=O)c1ccccc1Nc1ccccc1 (centres undefined)", 0]
]}

----------
- System: TK-10
- EXPERIMENT: NCI tumour cell line growth inhibition, 48 h
Active and inactive are the calls of the source. Cut-off read from the data, not from the text of the source: active = GI50 up to about 1.1 µM and inactive = higher.

{"columns": ["MOLECULE", "GI50"],
 "data": [
  ["CC(=O)C1(O)CC2(c3ccccc3)C(=O)C1(c1ccccc1)C(c1ccccc1)=C2c1ccccc1 (stereo not given)", "> 100 µM (inactive)"],
  ["O=S(=O)(/N=C(\\NO)Nc1ccc(Cl)cc1)c1ccc(-c2ccccn2)s1", "61.5 µM (inactive)"],
  ["COc1ccc(S(=O)(=O)NC(C)C(=O)O)cc1 (stereo not given)", "> 100 µM (inactive)"],
  ["C=C1C(=O)OC2C1C(OC(=O)/C(C)=C/C)CC1(C)C(=O)CCC(=C)C21 (stereo not given)", "4.89 µM (inactive)"],
  ["CCCCc1ccc(-n2sc3ncccc3c2=O)cc1", "14.4 µM (inactive)"]
]}

----------
- System: CAKI-1
- EXPERIMENT: NCI tumour cell line growth inhibition, 48 h
Structures can show the parent of a compound that is named as a salt. The source made the active and inactive calls. Rule as the data show it: active = GI50 up to about 1.1 µM and inactive = higher.
Outcomes: Yes (active), No (inactive)

{"columns": ["COMPOUND", "CATEGORY_LABEL"],
 "data": [
  ["Cc1nnc2n1N=C(c1ccccc1)/C(=C/c1ccc(-c3ccc(Cl)cc3)o1)S2", "No"],
  ["CC(C)(C)N1C=[N+](C(C)(C)C)CC1", "No"],
  ["O=[N+]([O-])c1cc(Br)cc2cc(Cl)cnc12", "No"],
  ["COC(=O)C(CCC1C=CCC1)/N=C\\c1ccccc1 (stereo unspecified)", "No"],
  ["Cc1[nH]nc(C(=O)N/N=C/c2ccccc2Cl)c1/N=N\\N(C)C", "No"],
  ["Cc1c([N+](=O)[O-])oc2ccc3ccccc3c12", "No"],
  ["COc1ccc2c(C)cc(N/N=C/c3ccc(C)s3)nc2c1", "No"],
  ["O=C(Nc1ccc(Cl)cc1Cl)C(=O)C(C(=O)c1ccncc1)C1OC(=O)c2ccccc21 (stereo unspecified)", "No"],
  ["CC1CCOc2ccc(cc2)/C=N\\c2ccc(cc2)CCc2ccc(cc2)/N=C\\c2ccc(cc2)OCC1", "No"],
  ["CCc1cc(-c2nsc(=O)o2)c(S(=O)(=O)CC)s1", "No"],
  ["CN(CCNC(=O)c1n[nH]c2c1ccc1ccccc12)CCNC(=O)c1n[nH]c2c1ccc1ccccc12", "No"],
  ["CN(C)CCC=C1c2ccccc2C=Cc2ccccc21 [CYCLOBENZAPRINE HYDROCHLORIDE]", "No"],
  ["CO/C=C/c1cc2c(cc1C(OC)OC)OCO2", "No"],
  ["CCOP(=O)(O)C(Nc1ccc(/N=N/c2ccccc2)cc1)c1cccc(C(Nc2ccc(/N=N/c3ccccc3)cc2)P(=O)(O)OCC)c1 (stereo unspecified)", "No"],
  ["CCN(CC)CCCNc1nnc(C)c2[nH]c3ccccc3c12", "No"],
  ["CC1=NN(c2ccccc2)C(=O)C1=C1SCCCS1", "No"],
  ["COc1cccc2c1C(=O)c1c(O)c3c(c(O)c1C2=O)C[C@@](O)(C(=O)CO)C[C@@H]3OC1CC(N2CCOCC2C#N)C(O)C(C)O1 (stereo partly specified)", "Yes"],
  ["N=C(N)NS(=O)(=O)c1ccc(Nc2c3ccccc3nc3c(C(=O)Nc4ccc(S(N)(=O)=O)cc4)ccc(Cl)c23)cc1", "No"],
  ["COc1cccc2c(=O)oc(-c3ccccc3C)nc12", "No"],
  ["COCO[C@@H]1C[C@H]2C(=O)Nc3ccccc3C(=O)N2C1", "No"],
  ["Cn1c(=O)nc2n(-c3ccc(Cl)c(C(F)(F)F)c3)c3ccccc3nc-2c1=O", "No"]
]}

----------
- Tested on: OVCAR-4
- EXPERIMENT: NCI tumour cell line growth inhibition, 48 h
Activity calls are given as the source filed them. Rule as the data show it: active = GI50 up to about 1.1 µM and inactive = higher.
Each entry below carries its recorded GI50.

{"columns": ["COMPOUND", "GI50"],
 "data": [
  ["N#Cc1c(N2CCCC2)nsc1NCc1ccccc1", "> 100 µM (inactive)"],
  ["C=CCOC(=O)N1[C@H]2C#C/C=C\\C#C[C@]3(O)C(=O)C[C@H](C)[C@]24O[C@]43C2=CC(=O)C=CC21OC (stereo not given in full)", "26.4 µM (inactive)"],
  ["NC(=O)NC1C(c2ccccc2)=C1c1ccccc1", "15.3 µM (inactive)"],
  ["COc1ccc2nc3n(c2c1)C(c1c(F)cccc1Cl)SC3 (stereo not given)", "> 100 µM (inactive)"],
  ["CC(C)OP(=O)(OC(C)C)/C(=N/Nc1ccc([N+](=O)[O-])cc1)Nc1ccccc1", "28.4 µM (inactive)"]
]}

----------
- Test system: SNB-19
- EXPERIMENT: NCI tumour cell line growth inhibition, 48 h
Activity calls are given as the source filed them. No stated cut-off is given here; in the data, active = GI50 up to about 1.1 µM and inactive = higher.
Item-by-item account of GI50

{"columns": ["COMPOUND", "GI50"],
 "data": [
  ["COc1ccc(C2SC(=N)Nc3c2c(C)nn3C(=O)c2ccc(Cl)cc2)cc1OC (stereo unspecified)", "> 10 µM (inactive)"],
  ["CCOC(=O)NN(C(=O)OCC)C(=C(c1ccccc1)N1CCOCC1)N(NC(=O)OCC)C(=O)OCC", "> 100 µM (inactive)"],
  ["Cn1nc(S(N)(=O)=O)s/c1=N/S(=O)(=O)c1ccc(N)cc1", "> 100 µM (inactive)"],
  ["CC(C)(C)N1C=[N+](C(C)(C)C)CC1", "> 100 µM (inactive)"],
  ["C=CN1CCN(c2ccccc2)P1(=O)Oc1ccccc1 (stereo unspecified)", "> 100 µM (inactive)"],
  ["Cc1c(C)c(C)n(C2OC(CO)C(O)C(O)C2O)c(=S)c1C#N (stereo unspecified)", "> 100 µM (inactive)"]
]}
